Assay: physchem
Details: pKa of the NH2
Consider the following compounds and their measured pKa readings.

[
  {
    "SMILES_STR": "COC(=O)[C@@H](N)CS",
    "pKa": 7.93
  },
  {
    "SMILES_STR": "N[C@@H](CS)C(=O)O",
    "pKa": 9.54
  }
]

----------
Assay: physchem
Conditions: pKa of the OH

[
  {
    "COMPOUND": "OCC(S)CS (stereo not shown) [2,3-disulfanylpropan-1-ol]",
    "pKa": 15.8
  }
]

----------
Assay: physchem
Details: pKa of the SH
Excerpt: The reduction attributes of these compounds are subject to pH conditions, specifically, in the alkaline media of the cement mixture where the pH is around 12.
ENDPOINT: pKa

[
  {
    "SMILES_STR": "N[C@@H](CS)C(=O)O",
    "ENDPOINT": "pKa",
    "RESULT": 6.61
  }
]

----------
Experiment: physchem
Conditions: pKa of the second SH

[
  {
    "COMPOUND": "O[C@H](CS)[C@H](O)CS (racemic)",
    "pKa": 8.72
  }
]

----------
Assay: physchem
Conditions: pKa of the first SH

[
  {
    "MOLECULE": "O[C@H](CS)[C@H](O)CS (racemic) [dithiothreitol]",
    "pKa": 8.12
  }
]

----------
Test: pKa values of mercapto alcohol and cysteine derivatives (Table 1)
ENDPOINT: pKa

[
  {
    "COMPOUND": "COC(=O)[C@@H](N)CS [cysteine methyl ester]",
    "ENDPOINT": "pKa",
    "RESULT": 6.86
  }
]

----------
Consider the following compounds and their measured pKa readings.
Assay: physchem
Conditions: pKa of the secondary SH

[
  {
    "COMPOUND": "OCC(O)C(S)CS (centres unmarked)",
    "pKa": 7.98
  },
  {
    "COMPOUND": "OCC(S)CS (centres unmarked)",
    "pKa": 8.05
  }
]

Source of measurements: patent US20250214896A1
